Below, each entry is listed alongside its reported pIC50.
study_target: PDE4B (Homo sapiens, UniProt Q07343)
Sequence (Q07343 whole entry): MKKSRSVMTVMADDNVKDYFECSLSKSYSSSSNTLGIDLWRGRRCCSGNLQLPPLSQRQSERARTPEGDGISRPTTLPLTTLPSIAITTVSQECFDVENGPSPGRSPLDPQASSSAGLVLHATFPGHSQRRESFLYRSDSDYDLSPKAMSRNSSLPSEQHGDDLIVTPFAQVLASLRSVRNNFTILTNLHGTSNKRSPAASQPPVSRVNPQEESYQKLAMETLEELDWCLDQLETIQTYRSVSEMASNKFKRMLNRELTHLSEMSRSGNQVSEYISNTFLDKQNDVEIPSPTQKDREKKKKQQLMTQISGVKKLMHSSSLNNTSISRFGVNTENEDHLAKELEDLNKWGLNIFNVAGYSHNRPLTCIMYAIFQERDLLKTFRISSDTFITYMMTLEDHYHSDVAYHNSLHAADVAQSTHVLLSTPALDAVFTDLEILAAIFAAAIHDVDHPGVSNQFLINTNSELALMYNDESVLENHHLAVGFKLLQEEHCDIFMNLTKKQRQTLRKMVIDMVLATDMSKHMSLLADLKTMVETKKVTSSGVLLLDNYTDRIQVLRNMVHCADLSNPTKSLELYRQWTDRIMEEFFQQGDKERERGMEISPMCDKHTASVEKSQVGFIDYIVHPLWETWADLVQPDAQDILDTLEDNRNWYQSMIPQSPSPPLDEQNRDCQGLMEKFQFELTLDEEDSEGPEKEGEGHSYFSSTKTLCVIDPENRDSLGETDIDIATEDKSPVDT
assay_name: In-vitro assay for PDE4 enzymes, real-time enzyme-coupled spectrophotometric assay, PDE4B Activity (Table 10)
Format: biochemical
condition_summary: human PDE4B (hPDE4B), enzyme-coupled spectrophotometric assay; read-out: PDE4B Activity, hPDE4B
pIC50: −log10 of the molar value.

The cases that follow already have their pIC50 on record.
COc1ccc(COC2=CC(=O)CC2)cc1-c1cccc(C(F)(F)F)c1 | 4.40 to 4.68
Nc1ccc(Cc2ccc(OC3COC3)c(-c3cccc(Cl)c3)c2)cc1 | > 5.30
COc1ccc(Cn2cnc([N+](=O)[O-])c2)c(F)c1-c1cccc(Cl)c1 | > 5.30
CCNC(=O)Nc1ccc(Oc2ccc(OC)c(-c3cccc(C#N)c3)c2F)cn1 | 4.70 to 5.30
COc1ccc(Cc2ccc(F)cc2)cc1-c1cccc(C(C)=O)c1 | > 5.30
COc1ccc(C(=O)c2ccc(F)cc2)c(F)c1-c1cccc([N+](=O)[O-])c1 | > 5.30
COc1ccc(Cn2ccccc2=O)cc1-c1cccc(C(C)=O)c1 | 4.70 to 5.30
COc1ccc(Cc2ccc(OCCN3CCCCC3)cc2)cc1-c1cccc([N+](=O)[O-])c1 | > 5.30

Problem: Short answer please: pIC50, PDE4B (Homo sapiens, UniProt Q07343), entry `COc1ccc(Cc2ccc(CNC(N)=O)nc2)c(F)c1-c1cccc(Cl)c1`
Result: > 5.30
